The reported measurements were obtained from patent US8748411B2.

# Tested Target: oncoprotein E7 from Human Papilloma Virus type 16 as GST fusion protein (E7-GST), phosphorylated by CK2 enzyme (Human papillomavirus type 16)
# Sequence (P03129 whole entry, looked up, the tested form may be a part): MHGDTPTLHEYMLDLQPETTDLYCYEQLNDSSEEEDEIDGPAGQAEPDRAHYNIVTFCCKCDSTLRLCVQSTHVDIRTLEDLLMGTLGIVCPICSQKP
# Assay Setup: read-out: Inhibitory concentration 50 (IC50)
pIC50: −log10 of the molar value. Where a SMILES comes first, the peptide text is derived from it.

{"Molecule": "NCCNCCNCCNCCN [C33426]", "pIC50": 7.54}
{"Molecule": "CCCC(NC(=O)CNC(=O)CN)C(=O)O (stereo not drawn) [C31424] (HELM PEPTIDE1{G.G.[CCCC(N[*:1])C(=O)O]}$$$$V2.0)", "pIC50": 7.49}
{"Molecule": "CN(CC(=O)O)C(=O)CNC(=O)OCc1ccccc1 [C31417] (HELM PEPTIDE1{[O=C(OCc1ccccc1)[*:2]].G.[Sar]}$$$$V2.0)", "pIC50": 7.55}
{"Molecule": "Cn1c(CCNC(=N)CSS(=O)(=O)O)nc2ccccc21 [C34437]", "pIC50": 7.57}
{"Molecule": "CCCCNC(=O)NCc1ccco1 [C30403]", "pIC50": 7.47}
{"Molecule": "O=C(O)CNC(=S)C(=S)NCC(=O)O [C32425]", "pIC50": 7.46}
{"Molecule": "NCC(=O)NCC(=O)NCC(=O)NCC(=O)O [C31416] (H-GGGG-OH)", "pIC50": 7.41}
{"Molecule": "N#CC(Nc1ccccc1C(N)=O)c1ccccc1 (stereo not drawn) [C34436]", "pIC50": 7.52}
{"Molecule": "CC(O)CNc1nc(N)nc(O)c1[N+](=O)[O-] (stereo not drawn) [C34438]", "pIC50": 7.51}
